# Tested on: TC32 Ewing sarcoma cell line
# Measurement notes: 72 hour cytotoxicity, TC32
# Type: cell-based
# Particulars: Ewing sarcoma cell line TC32, 72 hour; read-out: IC50 (nM) TC 32
Parameter measured: log10 of IC50 (log10 of the value in nM)
All values: log10 IC50 [nM].

The following molecules have reported results that may help.
COC(=O)[C@@H](OC)[C@@H]1Cc2cc3cc(OC4CC(OC5CC(O)C(O)C(C)O5)C(O)C(C)O4)c(C)c(O)c3c(O)c2C(=O)[C@H]1OC1CC(OC2CC(OC3CC(C)(O)C(O)C(C)O3)C(O)C(C)O2)C(O)C(C)O1 (stereo partly drawn) [MTMSA-Me ester]; 1.83
CO[C@@H]([C@@H]1Cc2cc3cc(O[C@H]4C[C@@H](O[C@H]5C[C@@H](O)[C@H](O)[C@@H](C)O5)[C@H](O)[C@@H](C)O4)c(C)c(O)c3c(O)c2C(=O)[C@H]1O[C@H]1C[C@@H](O[C@H]2C[C@@H](O[C@H]3C[C@](C)(O)[C@H](O)[C@@H](C)O3)[C@@H](O)[C@@H](C)O2)[C@H](O)[C@@H](C)O1)[C@@H](O)C(C)=O [MTMSK, reference compound]; 1.36
CO[C@H](C(=O)NCCc1c[nH]c2ccc(O)cc12)[C@@H]1Cc2cc3cc(OC4CC(OC5CC(O)C(O)C(C)O5)C(O)C(C)O4)c(C)c(O)c3c(O)c2C(=O)[C@H]1OC1CC(OC2CC(OC3CC(C)(O)C(O)C(C)O3)C(O)C(C)O2)C(O)C(C)O1 (stereo partly drawn) [MTMSA-Serotonin]; 2.82
COc1ccc2[nH]cc(CCNC(=O)[C@@H](OC)[C@@H]3Cc4cc5cc(OC6CC(OC7CC(O)C(O)C(C)O7)C(O)C(C)O6)c(C)c(O)c5c(O)c4C(=O)[C@H]3OC3CC(OC4CC(OC5CC(C)(O)C(O)C(C)O5)C(O)C(C)O4)C(O)C(C)O3)c2c1 (stereo partly drawn) [MTMSA-5-OMe Trypamine]; 1.86
CO[C@H](C(=O)NCCc1c[nH]c2ccccc12)[C@@H]1Cc2cc3cc(OC4CC(OC5CC(O)C(O)C(C)O5)C(O)C(C)O4)c(C)c(O)c3c(O)c2C(=O)[C@H]1OC1CC(OC2CC(OC3CC(C)(O)C(O)C(C)O3)C(O)C(C)O2)C(O)C(C)O1 (stereo partly drawn) [MTMSA-Tryptamine]; 2.04

// moving on: another record for log10 of IC50
What does the data say about its log10 of IC50? Entry: COC(=O)[C@H](Cc1ccc(O)cc1)NC(=O)[C@@H](OC)[C@@H]1Cc2cc3cc(OC4CC(OC5CC(O)C(O)C(C)O5)C(O)C(C)O4)c(C)c(O)c3c(O)c2C(=O)[C@H]1OC1CC(OC2CC(OC3CC(C)(O)C(O)C(C)O3)C(O)C(C)O2)C(O)C(C)O1 (stereo partly drawn) [MTMSA-Tyr]
2.12
